Values were extracted from paper PMC10384010.

- test: HPLC on IAM (immobilized artificial membrane) column, retention factor
- Format: physicochemical
- setup conditions: IAM.PC.DD.2 column; 10 mM phosphate buffer pH 7.4:acetonitrile 80:20
What k(IAM) retention factor was measured for each of the following?
Numbers only.

                                   compound  experimental_result
0       Clc1cccc(Cl)c1N=C1NCCN1 [clonidine]                 2.83
1  Cc1cnc(NC(=O)C2=C(O)c3ccccc3S(=O)(=O)N2C)s1 [meloxicam]                 0.49
2  CC(C)Cc1ccc(C(C)C(=O)O)cc1 (stereo not shown) [ibuprofen]                 0.86
3  O=C(O)C1N=C(c2ccccc2)c2cc(Cl)ccc2NC1=O (stereo not shown) [clorazepate]                 4.88
4  Nc1nnc(-c2cccc(Cl)c2Cl)c(N)n1 [lamotrigine]                 0.71
5  CCN(Cc1ccncc1)C(=O)C(CO)c1ccccc1 (stereo not shown) [tropicamid]                 1.06
6  CN(C)CCCN1c2ccccc2Sc2ccccc21 [promazine]                 0.10
7  Cc1ccc(S(=O)(=O)NC(=O)NN2CC3CCCC3C2)cc1 (stereo not shown) [gliclazide]                 0.28

# per-item lookup of k(IAM) retention factor; items listed below
1. CC(C)(O)c1ccccc1CC[C@@H](SCC1(CC(=O)O)CC1)c1cccc(/C=C/c2ccc3ccc(Cl)cc3n2)c1 [montelukast]
2. CC(C)NCC(O)c1ccc(NS(C)(=O)=O)cc1 (stereo not shown) [sotalol]

Output:
[99.10, 1.35]

# per-item lookup of k(IAM) retention factor; items listed below
1. O=C1CN=C(c2ccccn2)c2cc(Br)ccc2N1 [bromazepam]
2. C=CCN1C[C@H](C(=O)N(CCCN(C)C)C(=O)NCC)C[C@@H]2c3cccc4[nH]cc(c34)C[C@H]21 [carbegoline]
3. CCCCCOC(=O)Nc1nc(=O)n([C@@H]2O[C@H](C)[C@@H](O)[C@H]2O)cc1F [capecitabine]

Output:
[2.21, 17.05, 1.11]

---

- test: HPLC on IAM (immobilized artificial membrane) column, retention factor
- Format: physicochemical
- setup conditions: logarithm of retention factor; IAM.PC.DD.2 column; phosphate buffer pH 7.4:acetonitrile 80:20
value type: logkIAM
Numbers only.

Please review the entries below; each comes with its answer.
In [3]: df
Out[3]:
                                   compound  experimental_result
0  NC(=O)N1c2ccccc2C=Cc2ccccc21 [carbamazepine]                 0.18
1  CNCCC(Oc1ccc(C(F)(F)F)cc1)c1ccccc1 (stereo not drawn)                 1.82
2  CN(C)CCc1c[nH]c2ccc(C[C@H]3COC(=O)N3)cc12                 0.52
3  C[C@]12C=CC(=O)C=C1CC[C@@H]1[C@@H]2[C@@H](O)C[C@@]2(C)[C@H]1CC[C@]2(O)C(=O)CO                 0.45
4  Cc1ccc(O)c([C@H](CCN(C(C)C)C(C)C)c2ccccc2)c1                -0.68
5  COc1ccc(C(CN(C)C)C2(O)CCCCC2)cc1 (stereo not drawn)                 0.92

# per-item lookup of logkIAM; items listed below
1. CC(C)(O)c1ccccc1CC[C@@H](SCC1(CC(=O)O)CC1)c1cccc(/C=C/c2ccc3ccc(Cl)cc3n2)c1
2. O=C(N[C@H](CO)[C@H](O)c1ccc([N+](=O)[O-])cc1)C(Cl)Cl

Output:
1: 2.00; 2: 0.03

Input: Given the compound O=C(O)COC(=O)Cc1ccccc1Nc1c(Cl)cccc1Cl , what is its reported logkIAM?
Output: 0.42

---

- test: Normal-phase TLC on silica gel 60 F254 (Rf)
- Format: physicochemical
- setup conditions: water:methanol:acetonitrile 60:20:20, ammonium acetate pH 7.4
The threshold is inclusive: NP (Rf from NP TLC plate) of exactly 0.7 counts as T; values below receive F.

compound	assigned class
CC[C@@H](C(N)=O)N1CCCC1=O	T
O[C@@H]1CO[C@H]2[C@@H]1OC[C@@H]2O [isosorbide]	F
O=C1NC(=O)C(c2ccccc2)(c2ccccc2)N1	T
CCC[C@@H]1C[C@@H](C(=O)N[C@@H]([C@H]2O[C@H](SC)[C@H](O)[C@@H](O)[C@H]2O)[C@@H](C)O)N(C)C1	T
C[C@]12C=CC(=O)C=C1CC[C@@H]1[C@@H]2[C@@H](O)C[C@@]2(C)[C@H]1CC[C@]2(O)C(=O)CO	T
CC1COc2c(N3CCN(C)CC3)c(F)cc3c(=O)c(C(=O)O)cn1c23 (stereo not shown)	F
CC(=O)S[C@@H]1CC2=CC(=O)CC[C@]2(C)[C@H]2CC[C@@]3(C)[C@@H](CC[C@@]34CCC(=O)O4)[C@H]12	T
NC(=O)N1c2ccccc2CC(=O)c2ccccc21 [oxcarbamazepine]	T
Cc1cncc(CN2CCC(=C3c4ccc(Cl)cc4CCc4cccnc43)CC2)c1	F
OC(CNCC(O)C1CCc2cc(F)ccc2O1)C1CCc2cc(F)ccc2O1 (stereo not shown)	T

Input: Has Cc1ccc(S(=O)(=O)NC(=O)NN2CC3CCCC3C2)cc1 (stereo not shown) [gliclazide] a recorded NP (Rf from NP TLC plate) greater than or equal to 0.7?
Output: T

Input: Has OCCN1CCN(CCC=C2c3ccccc3Sc3ccc(C(F)(F)F)cc32)CC1 a recorded NP (Rf from NP TLC plate) greater than or equal to 0.7?
Output: F

Input: Has C[C@H]1c2cccc(O)c2C(=O)C2=C(O)[C@]3(O)C(=O)C(C(N)=O)=C(O)[C@@H](N(C)C)[C@@H]3[C@@H](O)[C@@H]21 a recorded NP (Rf from NP TLC plate) greater than or equal to 0.7?
Output: F

Input: Has CO[C@H]1/C=C/O[C@@]2(C)Oc3c(C)c(O)c4c(O)c(c(/C=N/N5CCN(C)CC5)c(O)c4c3C2=O)NC(=O)/C(C)=C\C=C\[C@H](C)[C@H](O)[C@@H](C)[C@@H](O)[C@@H](C)[C@H](OC(C)=O)[C@@H]1C a recorded NP (Rf from NP TLC plate) greater than or equal to 0.7?
Output: T

---

- test: HPLC on IAM (immobilized artificial membrane) column, retention factor
- Format: physicochemical
- setup conditions: logarithm of retention factor; IAM.PC.DD.2 column; phosphate buffer pH 7.4:acetonitrile 80:20
Entries are sorted into classes by logkIAM as follows: lower segment = under -0.04, middle segment = from -0.04 up to 0.8, upper segment = 0.8 and over

Answered cases to consult:
In [3]: df
Out[3]:
                                   compound  assigned_class
0  COc1ccnc(C[S+]([O-])c2nc3ccc(OC(F)F)cc3[nH]2)c1OC (stereo not drawn) [pantoprazole]  middle segment
1  Cc1ccc(-c2nc3ccc(C)cn3c2CC(=O)N(C)C)cc1 [zolpidem]  middle segment
2  C[C@H](CS)C(=O)N1CCC[C@H]1C(=O)O [captopril]   lower segment
3  Nc1nc2c(ncn2COCCO)c(=O)[nH]1 [aciclovir]   lower segment

Input: Please let me know in which category the item Cn1c(=O)c2[nH]cnc2n(C)c1=O [theophylline] belongs.
Output: lower segment

Input: Please let me know in which category the item CN1C(=O)CC(=O)N(c2ccccc2)c2cc(Cl)ccc21 [clobazam] belongs.
Output: middle segment

---

- test: HPLC on IAM (immobilized artificial membrane) column, retention factor
- Type: physicochemical
- setup conditions: IAM.PC.DD.2 column; 10 mM phosphate buffer pH 7.4:acetonitrile 80:20
value type: k(IAM) retention factor
Numbers only.

Please review the entries below; each comes with its answer.
>>> print(df.to_string())
                                   compound               value_type  experimental_result
0      CN1CCC(=C2c3ccccc3CC(=O)c3sccc32)CC1  k(IAM) retention factor                22.04
1  CCN(CC)CCNC(=O)c1cc(Cl)c(N)cc1OC [metoclopramide]  k(IAM) retention factor                 6.16
2  Cc1ccc(-c2cc(C(F)(F)F)nn2-c2ccc(S(N)(=O)=O)cc2)cc1  k(IAM) retention factor                50.01
3          CN(C)CCCN1c2ccccc2Sc2ccc(Cl)cc21  k(IAM) retention factor                58.85
4  COc1ccc(C(CN(C)C)C2(O)CCCCC2)cc1 (stereo not drawn)  k(IAM) retention factor                 8.25
5              CN[C@@H](C)[C@@H](O)c1ccccc1  k(IAM) retention factor                 2.21

# per-item lookup of k(IAM) retention factor; items listed below
1. O=C(N[C@H](CO)[C@H](O)c1ccc([N+](=O)[O-])cc1)C(Cl)Cl
2. CC(=O)S[C@@H]1CC2=CC(=O)CC[C@]2(C)[C@H]2CC[C@@]3(C)[C@@H](CC[C@@]34CCC(=O)O4)[C@H]12
3. OCCN1CCN(CC/C=C2/c3ccccc3Sc3ccc(Cl)cc32)CC1

Output:
[1.08, 13.38, 48.73]
